# method description: in vivo
# assay conditions: Sprague-Dawley, rat, plasma, po, 15 mg/kg
value kind: AUC(0-t) (µg·h/mL)

compound smiles: Cl.Cl.O.O=c1nc2n(c3c1CN(Cc1ccccc1)CC3)CCN2Cc1ccc(F)c(Br)c1
measured: 4.27

* * *

# experimental target: ATP-dependent Clp protease proteolytic subunit, mitochondrial (Homo sapiens)
# Sequence (Q16740 whole entry, the tested form may be a part): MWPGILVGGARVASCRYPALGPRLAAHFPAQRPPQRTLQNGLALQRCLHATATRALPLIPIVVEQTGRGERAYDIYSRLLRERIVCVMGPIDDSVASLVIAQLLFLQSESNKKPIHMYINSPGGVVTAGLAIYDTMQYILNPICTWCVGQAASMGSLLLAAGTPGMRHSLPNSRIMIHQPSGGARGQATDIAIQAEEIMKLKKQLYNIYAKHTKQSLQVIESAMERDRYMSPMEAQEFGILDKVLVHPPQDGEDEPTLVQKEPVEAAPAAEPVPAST
# method description: Agonist activity at human CLpP (57 to 277 amino acids) expressed in Escherichia coli using fluorogenic peptide AC-WLA-AMC as substrate incubated for 10 mins by fluorescence based assay
Recorded EC50 for the following molecules
value kind: EC50 (nM)

compound smiles: COc1cccc(CN2CCn3c2nc(=O)c2c3CCN(Cc3ccccc3)C2)c1
experimental target: ATP-dependent Clp protease proteolytic subunit, mitochondrial (Homo sapiens)
measured: 100
--
compound smiles: O=c1nc2n(c3c1CN(Cc1ccccc1)CC3)CCN2Cc1cccc(Br)c1
experimental target: ATP-dependent Clp protease proteolytic subunit, mitochondrial (Homo sapiens)
measured: 360
--
compound smiles: O=c1nc2n(c3c1CN(Cc1ccccc1)CC3)CCN2Cc1cccnc1
experimental target: ATP-dependent Clp protease proteolytic subunit, mitochondrial (Homo sapiens)
measured: 1040
--
compound smiles: CC(C)CCN1CCn2c1nc(=O)c1c2CCN(Cc2ccccc2)C1
experimental target: ATP-dependent Clp protease proteolytic subunit, mitochondrial (Homo sapiens)
measured: 450
--
compound smiles: O=c1nc2n(c3c1CN(Cc1ccccc1)CC3)CCN2Cc1ccc(F)cc1
experimental target: ATP-dependent Clp protease proteolytic subunit, mitochondrial (Homo sapiens)
measured: 130
--
compound smiles: O=c1nc2n(c3c1CN(Cc1ccccc1)CC3)CCN2c1ccccc1
experimental target: ATP-dependent Clp protease proteolytic subunit, mitochondrial (Homo sapiens)
measured: 1040
